Test system: HMPV clinical isolate TN/1501/A1
experimental protocol: HMPV antiviral assay Method-B (clinical isolate TN/1501/A1 in LLC-MK2 cells, ATP-Lite readout)
Format: cell-based, Human metapneumovirus (HMPV)
setup conditions: human metapneumovirus, LLC-MK2, 144 h, hMPV WT1501 (clinical isolate TN/1501/A1), 6 days
pEC50: −log10 of the molar value.
parameter: pEC50

Worked examples, 5 compounds total:
>>> result_value("COc1cc(C(=O)NC[C@](O)(c2cc3c(c(-c4ccc(F)c(Cl)c4F)n2)OC[C@]3(C)C(N)=O)C(F)(F)F)cc2cn(C3CC3)nc12 [Example 930]")
"> 6.30"
>>> result_value("Cc1cnc2c(Cl)cc(C(=O)NC[C@](O)(c3cc4c(c(-c5ccc(F)c(F)c5Cl)n3)OC[C@]4(C)C(N)=O)C(F)(F)F)cc2c1 [Example 779]")
"> 6.30"
>>> result_value("COc1cc(C(=O)NC[C@](O)(c2nc(-c3ccc4c(c3)OC(F)(F)O4)c3c(c2F)[C@@](C)(C(N)=O)CO3)C2CC2)cc2cn(C(F)F)nc12 [Example 860]")
"> 6.30"
>>> result_value("COc1cc(C(=O)NC[C@](O)(c2cc3c(c(-c4ccc(F)c(F)c4F)n2)OC[C@]3(C)C(N)=O)C2(F)CC2)cc2cn(C3CC3)nc12 [Example 729]")
"> 6.30"
>>> result_value("COc1cc(C(=O)NC[C@](O)(c2cc3c(c(-c4cc(F)c(F)cc4F)n2)OC[C@]3(C)C(N)=O)C2CC2)cc2cn(C3(F)CC3)nc12 [Example 1147]")
"> 6.30"

Kindly review the next compound as well.
In: Give its pEC50 value. Item: COc1cc(C(=O)NC[C@@](O)(c2cc3c(c(-c4c(F)cc(F)cc4Cl)n2)OC[C@]3(C)C(N)=O)C(F)(F)F)cc2cn(C3CC3)nc12 [Example 1234]
Out: < 6.30

---

Test system: HMPV clinical isolate TN/1501/A1
experimental protocol: HMPV antiviral assay Method-B (clinical isolate TN/1501/A1 in LLC-MK2 cells, ATP-Lite readout)
Assay type: cell-based, Human metapneumovirus (HMPV)
setup conditions: human metapneumovirus, LLC-MK2, 144 h, hMPV WT1501 (clinical isolate TN/1501/A1), 6 days
pEC50: −log10 of the molar value.
Below, each entry is listed with its recorded pEC50.

Worked cases, pEC50 given:
>>> result_value("COc1cc(C(=O)NC[C@](O)(c2cc3c(c(-c4ccc(C(F)(F)F)cc4)n2)OC[C@]3(C)C(N)=O)C2CC2)cc2cn(C(F)F)nc12 [Example 796]")
"> 6.30"
>>> result_value("COc1cc(C(=O)NC[C@](O)(c2cc3c(c(-c4ccc(Cl)cc4F)n2)OC[C@]3(C)C(N)=O)C2CC2)cc2cn(C3(Cl)CC3)nc12 [Example 843]")
"> 6.30"
>>> result_value("COc1cc(C(=O)NC[C@](O)(c2cc3c(c(-c4ccc(F)cc4)n2)OC[C@]3(C(N)=O)C(F)F)C2CC2)cc2cc(Cl)c(C)nc12 [Example 1030]")
"< 6.30"
>>> result_value("COc1cc(C(=O)NC[C@](O)(c2cc3c(c(-c4ccc(C(F)(F)F)c(Cl)c4)n2)OC[C@]3(C)C(N)=O)C(F)(F)F)cc2cn(C(F)F)nc12 [Example 580]")
"< 6.30"
>>> result_value("COc1ccc(C(=O)NC[C@](O)(c2cc3c(c(-c4ccc(F)cc4)n2)OC[C@]3(C)C(N)=O)C(F)(F)F)n2cc(C)nc12 [Example 694]")
"< 6.30"

# ---- query compound ----
In: GET /values?readout=pEC50&system=HMPV clinical isolate TN/1501/A1&item= Cc1cnc2c(OC(F)F)cc(C(=O)NC[C@](O)(c3cc4c(c(-c5cc(Cl)ccc5F)n3)OC[C@]4(C)C(N)=O)C3(F)CC3)cc2c1 [Example 736]
Out: > 6.30

---

Tested on: HMPV clinical isolate TN/1501/A1
experimental protocol: HMPV antiviral assay Method-B (clinical isolate TN/1501/A1 in LLC-MK2 cells, ATP-Lite readout)
Assay type: cell-based, Human metapneumovirus (HMPV)
setup conditions: human metapneumovirus, LLC-MK2, 144 h, hMPV WT1501 (clinical isolate TN/1501/A1), 6 days
parameter: EC50

Use the examples below as a reference point.
>>> result_value("Cc1cnc2c(OC(F)F)cc(C(=O)NC[C@](O)(c3cc4c(c(-c5ccc(F)cc5Cl)n3)OC[C@]4(C)C(N)=O)C(F)(F)F)cc2c1 [Example 524]")
"< 500 nM"
>>> result_value("COc1cc(C(=O)NC[C@](O)(c2cc3c(c(-c4cccc(F)c4Cl)n2)OC[C@]3(C)C(N)=O)C(F)(F)F)cc2cc(Br)cnc12 [Example 1121]")
"< 500 nM"
>>> result_value("C[C@]1(C(N)=O)COc2c1cc([C@@](O)(CNC(=O)c1cc(OC3CC3)c3nn(C(F)F)cc3c1)C(F)(F)F)nc2-c1csc2c(F)cccc12 [Example 606]")
"< 500 nM"
>>> result_value("COc1cc(C(=O)NC[C@](O)(c2cc3c(c(-c4cc(Cl)c(F)c(Cl)c4)n2)OC[C@]3(C)C(N)=O)C2CC2)cc2cn(C(F)F)nc12 [Example 677]")
"> 500 nM"
>>> result_value("COc1cc(C(=O)NC[C@](O)(c2cc3c(c(-c4cc(F)c(Cl)cc4F)n2)OC[C@]3(C)C(N)=O)C2CC2)cc2cn(C3CC3)nc12 [Example 1177]")
"< 500 nM"

In: Bench note: what EC50 did COc1cc(C(=O)NC[C@](O)(c2cc3c(c(-c4ccc5c(ccn5C(F)F)c4)n2)OC[C@]3(C)C(N)=O)C(F)(F)F)cc2cn(C3CC3)nc12 [Example 939] show?
Out: > 500 nM

---

Listed below: EC50 values for each entry.
System: HMPV clinical isolate TN/1501/A1
experimental protocol: HMPV antiviral assay Method-B (clinical isolate TN/1501/A1 in LLC-MK2 cells, ATP-Lite readout)
Assay type: cell-based, Human metapneumovirus (HMPV)
setup conditions: human metapneumovirus, LLC-MK2, 144 h, hMPV WT1501 (clinical isolate TN/1501/A1), 6 days
Method: In vitro HMPV antiviral activity was evaluated using the clinical isolate TN/1501/A1 and LLC-MK2 cells (ATCC #CCL-7), an immortalized kidney epithelial cell line from Macaca mulatta. […] The test compounds were assessed in duplicate at a top concentration of 10 μM followed by 3-fold serial dilutions to give a total of 10 concentration points. […] Cells were counted and seeded at a density of 5,000 cells/well, 12.5 μL/well. […]

>>> result_value("Cc1cnc2c(Cl)cc(C(=O)NC[C@](O)(c3cc4c(c(-c5ccc6c(c5)OC(F)(F)O6)n3)OC[C@]4(C)C(N)=O)C3CC3)cc2c1")
"< 500 nM"
>>> result_value("COc1cc(C(=O)NC[C@](O)(c2cc3c(c(-c4ccc(F)cc4Cl)n2)OC[C@]3(C)C(N)=O)C2(F)CC2)cc2cn(C3CC3)nc12")
"< 500 nM"
>>> result_value("COc1cc(C(=O)NC[C@](O)(c2nc(-c3ccc(F)cc3)c3c(c2F)[C@](C)(C(N)=O)CO3)C(F)(F)F)cc2cc(Cl)c(C)nc12")
"> 500 nM"
>>> result_value("COc1cc(C(=O)NC[C@](O)(c2cc3c(c(-c4ccc(F)cc4)n2)OC[C@@]3(CF)C(N)=O)C2CC2)cc2cc(C3CC3)nn12")
"> 500 nM"
>>> result_value("COc1cc(C(=O)NC[C@](O)(c2cc3c(c(-c4ccc(Cl)c(Cl)c4)n2)OC[C@]3(C)C(N)=O)C(F)(F)F)cc2cn(C3CC3)nc12")
"> 500 nM"

// next entry
In: What EC50 value was documented for this molecule, COc1cc(C(=O)NC[C@](O)(c2cc3c(c(-c4cc(Cl)c(F)cc4F)n2)OC[C@]3(C)C(N)=O)C2(F)CC2)cc2cc(Br)cnc12 ?
Out: < 500 nM

---

Measured pEC50 of individual entries
System: HMPV clinical isolate TN/1501/A1
experimental protocol: HMPV antiviral assay Method-B (clinical isolate TN/1501/A1 in LLC-MK2 cells, ATP-Lite readout)
Assay type: cell-based, Human metapneumovirus (HMPV)
setup conditions: human metapneumovirus, LLC-MK2, 144 h, hMPV WT1501 (clinical isolate TN/1501/A1), 6 days
pEC50: −log10 of the molar value.

In: I'm curious: which pEC50 was measured for C#Cc1ccc(-c2nc([C@@](O)(CNC(=O)c3cc(OC)c4nn(C5CC5)cc4c3)C(F)(F)F)cc3c2OC[C@]3(C)C(N)=O)cc1 [Example 982] tested on HMPV clinical isolate TN/1501/A1?
Out: < 6.30

In: What about this molecule? COc1cc(C(=O)NC[C@](O)(c2cc3c(c(-c4ccc5c(c4)OC(F)(F)O5)n2)OC[C@]3(C)C(N)=O)C(F)(F)F)cc2cc(C3CC3)nn12 [Example 697]
Out: > 6.30

In: // query: CC[C@]1(C(N)=O)COc2c1cc([C@@](O)(CNC(=O)c1cc(OC)c3nn(C4CC4)cc3c1)C(F)(F)F)nc2-c1ccc(F)cc1 [Example 573]
Out: > 6.30

In: Same read-out for COc1cc(C(=O)NC[C@](O)(c2cc3c(c(-c4cc(F)c(F)cc4Cl)n2)OC[C@]3(C)C(N)=O)C(F)(F)F)cc2cn(C3CC3)nc12 [Example 654] ?
Out: > 6.30

In: Field entry: C[C@]1(C(N)=O)COc2c1cc([C@@](O)(CNC(=O)c1cc(F)c3nc(N)sc3c1)C1(F)CC1)nc2-c1ccc(F)cc1 [Example 709]
Out: < 6.30

In: What about this molecule? COc1cc(C(=O)NC[C@](O)(c2cc3c(c(-c4ccc(F)cc4)n2)OC[C@]3(C)C(N)=O)C2CCC2)cc2cn(C3(F)CC3)nc12 [Example 726]
Out: > 6.30

The measurements presented in this section are drawn from patent US12612412B2.
